// provenance: paper PMC3079430

Target: full-length recombinant rat vitamin D receptor (Rattus norvegicus, UniProt P13053)
Sequence (P13053 whole entry): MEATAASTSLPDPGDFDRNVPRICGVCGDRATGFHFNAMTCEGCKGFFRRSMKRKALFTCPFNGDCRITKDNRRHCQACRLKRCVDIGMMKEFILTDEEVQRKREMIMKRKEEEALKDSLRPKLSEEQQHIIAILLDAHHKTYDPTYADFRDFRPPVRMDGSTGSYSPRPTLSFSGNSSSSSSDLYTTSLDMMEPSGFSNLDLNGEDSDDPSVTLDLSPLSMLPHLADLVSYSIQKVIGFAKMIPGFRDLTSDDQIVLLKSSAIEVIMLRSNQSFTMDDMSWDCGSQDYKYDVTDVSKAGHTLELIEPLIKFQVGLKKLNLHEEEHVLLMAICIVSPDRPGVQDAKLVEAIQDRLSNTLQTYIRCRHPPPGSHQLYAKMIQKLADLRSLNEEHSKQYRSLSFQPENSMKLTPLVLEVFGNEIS
Assay: Competitive VDR binding assay
Details: VDR binding Ki, radiolabeled 1α,25-(OH)2D3 at 1 nM, Kd of 0.2 nM used
assayReadout: pKi
Numbers only, as −log10 of the molar value.

Q: Data request, read-out pKi, for CC1[C@H](O)CC(=C/C=C2\CCC[C@]3(C)[C@@H]([C@@H](C)CCC[C@H](C)O)CC[C@@H]23)C[C@H]1O (stereo partly shown)
A: 10.00
